Field: inhibition at 0.3 µM. Provide a value for each of the compounds that follow.
# assay_system: human Kv 1.5 (Homo sapiens)
# Construct: expressed in transfected cells; host or cells: mammalian L-929 cells (mouse fibroblasts)
# Sequence (P22460 whole entry): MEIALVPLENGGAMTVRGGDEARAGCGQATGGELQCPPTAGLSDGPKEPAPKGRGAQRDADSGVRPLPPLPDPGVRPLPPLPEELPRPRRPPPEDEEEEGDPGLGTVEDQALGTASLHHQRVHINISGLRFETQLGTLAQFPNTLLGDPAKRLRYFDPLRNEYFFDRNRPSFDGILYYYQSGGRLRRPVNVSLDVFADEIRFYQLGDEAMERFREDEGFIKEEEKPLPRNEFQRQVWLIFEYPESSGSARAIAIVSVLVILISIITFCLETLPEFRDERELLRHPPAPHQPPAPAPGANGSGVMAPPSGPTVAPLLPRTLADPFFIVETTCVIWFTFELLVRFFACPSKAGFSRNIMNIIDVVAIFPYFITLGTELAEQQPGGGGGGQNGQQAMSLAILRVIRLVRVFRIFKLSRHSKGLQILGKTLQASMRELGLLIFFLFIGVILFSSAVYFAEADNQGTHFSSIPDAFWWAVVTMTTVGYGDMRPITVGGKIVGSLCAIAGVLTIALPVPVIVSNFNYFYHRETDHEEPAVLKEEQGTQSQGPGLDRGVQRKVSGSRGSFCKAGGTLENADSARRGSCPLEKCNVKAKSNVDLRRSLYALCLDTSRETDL
# measurement_protocol: block of IKur current in patch clamped L-929 cells expressing human Kv1.5
# Format: cell-based
# condition_label: L929, 0.3 μM; patch clamped mammalian L-929 cells stably expressing IKur protein; read-out: Percentage inhibition of Kv1.5 in L-929 cells at 0.3 μM
Numeric answer only, unit % assumed.

Which inhibition at 0.3 µM is listed for CC(Nc1nnc(-c2cncc(S(N)(=O)=O)c2)n2ccc(-c3ccccc3)c12)c1ccccn1 (single isomer, unassigned) ?
92

Quick check: inhibition at 0.3 µM of NS(=O)(=O)c1cncc(-c2nnc(NCc3ccccn3)c3c(-c4ccccc4)ccn23)c1 ?
86

What does the data say about its inhibition at 0.3 µM? Entry: NS(=O)(=O)c1cncc(-c2nnc(NCc3ncccc3F)c3c(-c4ccccc4)ccn23)c1
98

Param item = NS(=O)(=O)c1cc(-c2nnc(NCc3ccccn3)c3c(-c4ccccc4)ccn23)cnc1C(F)F ; retrieve measured inhibition at 0.3 µM.
95
